- System: Nude mice, LX-1 lung xenograft intrarenal, tumor weight T/C
- test-protocol: NCI In Vivo Anticancer Drug Screen. Data for tumor model Human Lung LX-1 Xenograft (intrarenal inoculation) in NU/NU BALB/C (nude) mice
- test-conditions: endpoint: mean tumor weight change; dose: 1200.0 mg/kg/injection; schedule: Q04DX003 (sc); vehicle: saline with Tween-80; higher = larger tumour
Records with an inconclusive call do not appear.
assay-endpoint: T/C

| molecule | T/C |
| --- | --- |
| C=COC(=O)C(Cc1ccccc1)NC(=O)OCc1ccccc1 (configuration not stated) | 104 % of control |
| CC(Oc1ccccc1-c1ccccc1)C(=O)N(C)C (configuration not stated) | 116 % of control |
| CN(C)P(=O)(Oc1ccccc1)N(C)C | 83 % of control |
| CC(=O)NC(Cc1ccc(F)cc1)C(=O)O (configuration not stated) | 91 % of control |
| CC(=O)OCC1(C)NC(=O)c2ccccc2O1 (configuration not stated) | 91 % of control |

Task: Fill blank: measured T/C of the molecule CC1(C)CC2(C)OC2C2(C1)N=NC(=Nc1ccccc1)O2 (configuration not stated) is ____.
Result: 91 % of control

Task: Consider the molecule CCOC(=O)c1cn(C)c2c1C(O)=C(C(=O)OC)CC(=O)N2 and give its measured T/C.
Result: 111 % of control

Hello, the source for this data is PubChem BioAssay AID266, in case you need it.
